# EC50 values compiled below
- assayed system: Oxysterols receptor LXR-beta (Homo sapiens, UniProt P55055)
- method notes: Transactivational agonist activity at human LXRbeta transfected in HEK293 cells expressing CMX-Gal4N assessed as luciferase activity after 16 hrs by reporter gene assay
Numbers only; they are read as nM.

CN(C(=O)c1ccccc1)c1ccc(C(O)(C(F)(F)F)C(F)(F)F)cc1 :: 180
CN1C(=O)c2ccccc2Oc2cc(C(O)(C(F)(F)F)C(F)(F)F)ccc21 :: 2700
C=C1c2ccccc2C(=O)N(C)c2ccc(C(O)(C(F)(F)F)C(F)(F)F)cc21 :: 770

Read the next record carefully.
Note to self: EC50 of "CN1C(=O)c2ccccc2CCc2cc(C(O)(C(F)(F)F)C(F)(F)F)ccc21" with Oxysterols receptor LXR-beta (Homo sapiens, UniProt P55055) was 260

----------
A collection of compounds and their measured pIC50
- assayed system: Oxysterols receptor LXR-beta (Homo sapiens, UniProt P55055)
- method notes: Transactivational antagonist activity at human LXRbeta transfected in HEK293 cells expressing CMX-Gal4N assessed as inhibition of T1317-induced luciferase activity after 16 hrs by reporter gene assay
pIC50: −log10 of the molar value.

Illustrative cases are given below, each with its answer.
C=C1c2ccccc2C(=O)N(C)c2ccc(C)cc21 :: < 5.00
C=C1c2ccccc2C(=O)N(C)c2ccc(CO)cc21 :: < 5.00

Let us move to another entry and its pIC50.
Form field pIC50 for item "C=C1c2ccccc2C(=O)N(C)c2ccccc21" on Oxysterols receptor LXR-beta (Homo sapiens, UniProt P55055): < 5.00

----------
- assayed system: Oxysterols receptor LXR-alpha (Homo sapiens)
- Sequence (Q13133 whole entry, the tested form may be a part): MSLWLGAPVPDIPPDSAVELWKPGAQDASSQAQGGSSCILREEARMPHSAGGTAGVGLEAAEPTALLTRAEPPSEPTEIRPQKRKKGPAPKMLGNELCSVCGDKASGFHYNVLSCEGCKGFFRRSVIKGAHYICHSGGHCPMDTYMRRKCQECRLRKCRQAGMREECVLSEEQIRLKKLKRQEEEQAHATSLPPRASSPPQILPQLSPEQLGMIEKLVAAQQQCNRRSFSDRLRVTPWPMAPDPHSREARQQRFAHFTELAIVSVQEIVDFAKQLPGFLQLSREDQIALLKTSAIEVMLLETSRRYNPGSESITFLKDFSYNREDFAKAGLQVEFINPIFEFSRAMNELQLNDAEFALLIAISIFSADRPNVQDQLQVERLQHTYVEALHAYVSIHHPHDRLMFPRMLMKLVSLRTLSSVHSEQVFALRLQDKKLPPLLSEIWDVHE
- method notes: Transactivational agonist activity at human LXRalpha transfected in HEK293 cells expressing CMX-Gal4N assessed as luciferase activity after 16 hrs by reporter gene assay relative to N-(4-(1,1,1,3,3,3-hexafluoro-2-hydroxypropan-2-yl)phenyl)-N-methylbenzamide
- Assay type: cell-based
- measurement conditions: read-out: Efficacy
readout name: Emax
Don't forget the unit after the number, please.

C=C1c2ccccc2C(=O)N(C)c2ccc(C(O)(C(F)(F)F)C(F)(F)F)cc21 :: 45%
CN1C(=O)c2ccccc2CCc2cc(C(O)(C(F)(F)F)C(F)(F)F)ccc21 :: 117%

Then there is this compound:
Measured Emax, O=S(=O)(c1ccccc1)N(CC(F)(F)F)c1ccc(C(O)(C(F)(F)F)C(F)(F)F)cc1 [T091317] : 124%

----------
Consider the following compounds and their measured IC50 readings.
- assayed system: Oxysterols receptor LXR-beta (Homo sapiens, UniProt P55055)
- Sequence (P55055 whole entry): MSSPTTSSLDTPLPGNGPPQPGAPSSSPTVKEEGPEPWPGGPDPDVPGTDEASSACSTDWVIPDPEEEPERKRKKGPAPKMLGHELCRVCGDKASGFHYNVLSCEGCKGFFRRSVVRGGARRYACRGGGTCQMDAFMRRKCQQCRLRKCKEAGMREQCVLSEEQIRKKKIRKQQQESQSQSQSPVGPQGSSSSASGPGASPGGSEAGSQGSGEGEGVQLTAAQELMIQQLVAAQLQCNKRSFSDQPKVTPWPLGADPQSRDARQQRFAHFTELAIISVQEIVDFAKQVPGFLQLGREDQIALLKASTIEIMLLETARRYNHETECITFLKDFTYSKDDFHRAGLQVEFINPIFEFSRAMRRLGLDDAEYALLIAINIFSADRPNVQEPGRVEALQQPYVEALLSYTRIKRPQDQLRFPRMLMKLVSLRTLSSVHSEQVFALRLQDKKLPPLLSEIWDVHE
- method notes: Transactivational antagonist activity at human LXRbeta transfected in HEK293 cells expressing CMX-Gal4N assessed as inhibition of T1317-induced luciferase activity after 16 hrs by reporter gene assay

Here are 5 compounds together with their reported answers.
C=C1c2ccccc2C(=O)N(C)c2ccc(CCCCCC)cc21 :: > 10 µM
C=C1c2ccccc2C(=O)N(C)c2ccc(C(C)(C)C)cc21 :: > 10 µM
C=C1c2ccccc2C(=O)N(C)c2ccc(C(C)C)cc21 :: > 10 µM
C=C1c2ccccc2C(=O)N(C)c2ccc(CC)cc21 :: > 30 µM
C=C1c2ccccc2C(=O)N(C)c2ccc(CCCCCCCCCCCC)cc21 :: > 30 µM

Consider now this further compound.
Query "C=C1c2ccc(-c3cccc(C(=O)O)c3)cc2C(=O)N(C)c2ccc(CC)cc21" yields IC50 of > 30 µM
